test system: MIWI (PIWIL1) piRISC loaded with piRNA #2 (30 nt); test: pre-steady-state target cleavage rate (min^-1); MIWI and MILI are mouse PIWI proteins and EfPiwi is from a freshwater sponge; tags in brackets are library labels; higher = faster piRNA-guided slicing of the target; settings: guide: piRNA #2 5'p-UUAGGUAACCCAGUAGAUCCAGAGGAAUUC; auxiliary factor: 500 nM mouse GTSF1;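 note: 1 nM active piRISC with 0.1 nM target library at 33 °C single turnover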
Over roughly 5,500 sequences, “pre-steady-state target cleavage rate” has its median near 0.1; the highest 2% begin near 0.64. The full list was thinned out, with the highest values kept by preference.
measurementName: pre-steady-state target cleavage rate
// response body must contain only the number

The cases that follow already have their pre-steady-state target cleavage rate on record.
1) CUUAAGGUAUGGAUCUACUGGGUUACCUAA    0.323
2) CUAUUCCUCUGGAUCUACUGGGUAACCUAA    0.231

Kindly review the next sequence as well.
Give its pre-steady-state target cleavage rate value. Item: "CUUAACCUCUGGUUCUACUGGCUUACCUAA"
0.112
